# Tested on: SUDIPGIV (diffuse intrinsic pontine glioma line)
# ASSAY INFO: growth inhibition (% activity, log2 RLU normalised to DMSO / staurosporine); higher = more growth inhibition
# STUDY CONDITIONS: 33 µM
MEASURED PROPERTY: growth inhibition (%)
Hi! Could you send only the number? It should be in %, unit omitted.

What value of growth inhibition has been reported for the following compound? N[C@H](C(=O)O)[C@H](O)c1ccc(O)c(O)c1
-1.1

What value of growth inhibition has been reported for the following compound? Oc1ccc(OC2CCCCO2)cc1 (stereo not given)
0.845

What value of growth inhibition has been reported for the following compound? Cc1cccc(Nc2ccncc2S(=O)(=O)NC(=O)NC(C)C)c1
-1.46

What value of growth inhibition has been reported for the following compound? NC12CC3CC(CC(C3)C1)C2
0.117

What value of growth inhibition has been reported for the following compound? CCCCCCCCCCCCCCCC(=O)O[C@@H]1[C@@H](O)[C@@H](O)[C@@H]([C@H](NC(=O)[C@@H]2C[C@@H](CCC)CN2C)[C@H](C)Cl)O[C@@H]1SC
1.12

What value of growth inhibition has been reported for the following compound? CC1CC(OC(=O)C(O)c2ccccc2)CC(C)(C)C1 (stereo not given)
2.02

What value of growth inhibition has been reported for the following compound? Cc1cccc(C)c1OCC(=O)N[C@@H](Cc1ccccc1)[C@@H](O)C[C@H](Cc1ccccc1)NC(=O)[C@H](C(C)C)N1CCCNC1=O
-2.8

What value of growth inhibition has been reported for the following compound? CCc1c(Cl)c(O)c(Cl)c(O)c1C(=O)O[C@H]1[C@H](O)[C@H](OC)[C@H](OC/C2=C\C=C\C[C@H](O)/C(C)=C/[C@H](CC)[C@@H](O[C@@H]3OC(C)(C)[C@@H](OC(=O)C(C)C)[C@H](O)[C@@H]3O)/C(C)=C/C(C)=C/C[C@@H]([C@@H](C)O)OC2=O)O[C@@H]1C
3.19

What value of growth inhibition has been reported for the following compound? CN1C(C(=O)Nc2ccccn2)=C(O)c2sc(Cl)cc2S1(=O)=O
-7.21

What value of growth inhibition has been reported for the following compound? CCCOc1ccc2[nH]c(NC(=O)OC)nc2c1
11.4

What value of growth inhibition has been reported for the following compound? C=C1c2cccc(O)c2C(O)=C2C(=O)[C@]3(O)C(O)=C(C(N)=O)C(=O)[C@@H](N(C)C)[C@@H]3[C@@H](O)[C@H]12
2.28

What value of growth inhibition has been reported for the following compound? O=c1c(-c2ccc(O)cc2)coc2cc(O)ccc12
-0.853

What value of growth inhibition has been reported for the following compound? COc1cc(C(=O)NC2CCCNC2)cc(OC)c1OC (stereo not given)
1.23

What value of growth inhibition has been reported for the following compound? COC(=O)Nc1nc2cc(C(=O)c3ccc(F)cc3)ccc2[nH]1
-1.42

What value of growth inhibition has been reported for the following compound? CN1CCN2c3ccccc3Cc3ccccc3C2C1 (stereo not given)
-0.203

What value of growth inhibition has been reported for the following compound? CCC(NC(C)C)C(O)c1ccc(O)c(O)c1 (stereo not given)
1.08

What value of growth inhibition has been reported for the following compound? CC(N)C12CC3CC(CC(C3)C1)C2 (stereo not given)
0.585

What value of growth inhibition has been reported for the following compound? CSc1nc2cc(Cl)c(Oc3cccc(Cl)c3Cl)cc2[nH]1
2.29

What value of growth inhibition has been reported for the following compound? NC(=O)c1cccnc1
-0.404

What value of growth inhibition has been reported for the following compound? CC(C)[C@H](N)C(=O)OCCOCn1cnc2c(=O)nc(N)[nH]c21
-0.767

Source of measurements: the supplement of paper PMC8253809
